- Target Of Assay: α2A-AR (Rattus norvegicus, UniProt P22909)
- Sequence (P22909 1-465): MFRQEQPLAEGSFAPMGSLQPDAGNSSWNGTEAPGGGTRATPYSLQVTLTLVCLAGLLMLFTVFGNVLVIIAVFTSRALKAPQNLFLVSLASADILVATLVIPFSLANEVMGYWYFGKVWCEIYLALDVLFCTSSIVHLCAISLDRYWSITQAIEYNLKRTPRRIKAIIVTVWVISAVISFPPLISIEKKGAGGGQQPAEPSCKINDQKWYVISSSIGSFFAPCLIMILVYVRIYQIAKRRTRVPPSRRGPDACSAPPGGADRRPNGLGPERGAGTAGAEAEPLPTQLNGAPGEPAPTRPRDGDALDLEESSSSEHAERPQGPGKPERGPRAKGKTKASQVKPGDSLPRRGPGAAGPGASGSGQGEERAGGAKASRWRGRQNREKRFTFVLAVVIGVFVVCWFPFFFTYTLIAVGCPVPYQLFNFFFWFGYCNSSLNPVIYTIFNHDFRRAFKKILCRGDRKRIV
- Format: cell-based
- Protocol Conditions: antagonizing EPI-induced reduction of epileptiform burst discharges
Quantity: pKb (equilibrium dissociation constant, Schild x-intercept)

>>> obs_value("COC1(C2=NCCN2)COc2ccccc2O1 (stereo not shown)")
8.87
>>> obs_value("CN1CC[C@]2(CCN3CCc4c(oc5ccccc45)[C@@H]3C2)N(C)C1=O")
8.32
>>> obs_value("CCS(=O)(=O)N1CCC[C@@H]2CN3CCc4cc(OC)ccc4[C@@H]3C[C@@H]21")
9.00
>>> obs_value("CC1c2ccccc2CN1CC1=NCCN1 (stereo not shown)")
7.81
>>> obs_value("COc1ccccc1N1CCN(CCN2C(=O)c3ccccc3C(C)(C)C2=O)CC1")
6.14
>>> obs_value("COc1cccc(OC)c1OCCNCC1COc2ccccc2O1 (stereo not shown)")
7.34
>>> obs_value("CN1CCN(c2ccc(Nc3c4ccccc4nc4ccccc34)cc2)CC1")
5.23
